Tested on: NCI-H196 complex spheroids with HUVEC/MSC, growth % T/C
assay: Anticancer human tumor NCI-H196 cell line growth inhibition [Asc];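 note: spheroids exposed to compound for 7 days before measurement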
run-conditions: curve of first compound; second compound 0.0316 µM

compound	tested-system	IC50
CCN1C(C(=O)NC23CCC(C(=O)O)(CC2)CC3)C(c2cccc(Cl)c2F)C2(C(=O)Nc3cc(Cl)ccc32)C12CCCCC2 (configuration not stated) + CNC(C)C(=O)NC1CN(S(=O)(=O)c2cccc(S(=O)(=O)N3CCC4CCC(C(=O)NC(c5ccccc5)c5ccccc5)N4C(=O)C(NC(=O)C(C)NC)C3)c2)CCC2CCC(C(=O)NC(c3ccccc3)c3ccccc3)N2C1=O	NCI-H196 complex spheroids with HUVEC/MSC, growth % T/C	< 9.49 nM
Cn1ncnc1[C@H]1c2n[nH]c(=O)c3cc(F)cc(c23)N[C@@H]1c1ccc(F)cc1 + CNC(C)C(=O)NC1CN(S(=O)(=O)c2cccc(S(=O)(=O)N3CCC4CCC(C(=O)NC(c5ccccc5)c5ccccc5)N4C(=O)C(NC(=O)C(C)NC)C3)c2)CCC2CCC(C(=O)NC(c3ccccc3)c3ccccc3)N2C1=O	NCI-H196 complex spheroids with HUVEC/MSC, growth % T/C	< 0.316 nM

---

Test system: NCI-H196 complex spheroids with HUVEC/MSC, growth % T/C
assay: Anticancer human tumor NCI-H196 cell line growth inhibition [Asc];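 note: spheroids exposed to compound for 7 days before measurement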
run-conditions: curve of first compound; second compound 1 µM

compound	IC50
CCN1CCN(Cc2ccc(Nc3ncc(F)c(-c4cc(F)c5nc(C)n(C(C)C)c5c4)n3)nc2)CC1 + CNC(C)C(=O)NC1CN(S(=O)(=O)c2cccc(S(=O)(=O)N3CCC4CCC(C(=O)NC(c5ccccc5)c5ccccc5)N4C(=O)C(NC(=O)C(C)NC)C3)c2)CCC2CCC(C(=O)NC(c3ccccc3)c3ccccc3)N2C1=O	< 3.16 nM
Cn1ncnc1[C@H]1c2n[nH]c(=O)c3cc(F)cc(c23)N[C@@H]1c1ccc(F)cc1 + Cc1c(S(C)(=O)=O)c(-c2cc(F)cc(N3CCN(c4ccc(NS(=O)(=O)c5ccc(NC(CCN6CCC(C(=O)OCCCP(=O)(O)O)CC6)CSc6ccccc6)c(S(=O)(=O)C(F)(F)F)c5)cc4)CC3)c2)c(-c2ccc(Cl)cc2)n1C(C)C	> 100 nM
C#Cc1c(F)ccc2cc(O)cc(-c3ncc4c(N5CC6CCC(C5)N6)nc(OCC56CCCN5CC(F)C6)nc4c3F)c12 (stereo not drawn) + Cc1c(S(C)(=O)=O)c(-c2cc(F)cc(N3CCN(c4ccc(NS(=O)(=O)c5ccc(NC(CCN6CCC(C(=O)OCCCP(=O)(O)O)CC6)CSc6ccccc6)c(S(=O)(=O)C(F)(F)F)c5)cc4)CC3)c2)c(-c2ccc(Cl)cc2)n1C(C)C	> 10000 nM

---

Tested on: NCI-H196 complex spheroids with HUVEC/MSC, growth % T/C
assay: Anticancer human tumor NCI-H196 cell line growth inhibition [Asc];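 note: spheroids exposed to compound for 7 days before measurement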;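 for viability, T/C: 100% = DMSO vehicle control wells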
run-conditions: second compound 0.316 µM; first compound 0.1 µM; stronger effect = lower value
// values below are reported viability, T/C
measure: viability, T/C (%)

compound	observed-result
Cn1ncnc1[C@H]1c2n[nH]c(=O)c3cc(F)cc(c23)N[C@@H]1c1ccc(F)cc1 + Cc1c(S(C)(=O)=O)c(-c2cc(F)cc(N3CCN(c4ccc(NS(=O)(=O)c5ccc(NC(CCN6CCC(C(=O)OCCCP(=O)(O)O)CC6)CSc6ccccc6)c(S(=O)(=O)C(F)(F)F)c5)cc4)CC3)c2)c(-c2ccc(Cl)cc2)n1C(C)C	93.4
COc1c(OCCCN2CCOCC2)ccc2c3n(c(=NC(=O)c4cnc(N)nc4)nc12)CCN3 + Cc1c(S(C)(=O)=O)c(-c2cc(F)cc(N3CCN(c4ccc(NS(=O)(=O)c5ccc(NC(CCN6CCC(C(=O)OCCCP(=O)(O)O)CC6)CSc6ccccc6)c(S(=O)(=O)C(F)(F)F)c5)cc4)CC3)c2)c(-c2ccc(Cl)cc2)n1C(C)C	62.7

All figures here come from PubChem BioAssay AID1963439.
